Source: patent US20100310640A1

# measured_target: T1, HLA-DR DRB1*0802 (human)
# T1 chain 1: not shown
# T1 chain 2: not shown
# protocol_notes: radioligand inhibition, purified HLA-DR
# measurement_conditions: remark: other sources report otherwise
measured_parameter: IC50 (µM)

{"binder": "PPSMVAAGSVVAAVQ [Cyclin D1.109]", "readout_number": 1.4}
{"binder": "HNQVRQVPLQRLRIV [Her/neu.88]", "readout_number": 0.009}
{"binder": "LKSGMKELAVFREKV [Peptide 9019.0185]", "readout_number": 0.26}

[P] RPRFRELVSEFSRMA [Peptide 9019.0095]
[Q] RWCIPWQRLLLTASL [CEA.10 peptide 9019.0104]
Min IC50? P | Q Identify your pick by its label. Q
(Q: 0.263 µM, P: 0.376 µM)
